Let's look at some compounds and their measured % ID/g (72 h) Liver.
Tested on: ASPC-1 tumor-bearing mice
test-name: Biodistribution of radionuclide labeled complexes in ASPC-1 tumor-bearing mice
Format: in vivo, BALB/c nude mice
condition-set: Liver, 72 h
parameter: % ID/g (72 h) Liver

compound	parameter	result
COc1cccc(OC)c1-c1cc(C(=O)NC2(C(=O)O)C3CC4CC(C3)CC2C4)nn1-c1ccc(NC(=O)CCCN(C)CCCN(C)C(=O)CN2CCN(CC(=O)[O-])CCN(CC(=O)[O-])CCN(CC(=O)[O-])CC2)cc1C(C)C.[177Lu+3] (stereo not shown) [^177Lu-I-5]	% ID/g (72 h) Liver	0.96 ± 0.07 % ID/g
COc1cccc(OC)c1-c1cc(C(=O)NC2(C(=O)O)C3CC4CC(C3)CC2C4)nn1-c1ccc(NCCOCCOCCNC(=O)CN2CCN(CC(=O)[O-])CCN(CC(=O)[O-])CCN(CC(=O)[O-])CC2)cc1C(C)C.[177Lu+3] (stereo not shown) [^177Lu-I-10]	% ID/g (72 h) Liver	0.06 ± 0.02 % ID/g
COc1cccc(OC)c1-c1cc(C(=O)NC2(C(=O)O)C3CC4CC(C3)CC2C4)nn1-c1ccc(N(C)CCCN(C)CCCN(C)C(=O)CN2CCN(CC(=O)[O-])CCN(CC(=O)[O-])CCN(CC(=O)[O-])CC2)cc1C(C)C.[177Lu+3] (stereo not shown) [^177Lu-I-1]	% ID/g (72 h) Liver	1.06 ± 0.46 % ID/g
COc1cccc(OC)c1-c1cc(C(=O)NC2(C(=O)O)C3CC4CC(C3)CC2C4)nn1-c1ccc(C(=O)N(C)CCCN(C)CCCN(C)C(=O)CN2CCN(CC(=O)[O-])CCN(CC(=O)[O-])CCN(CC(=O)[O-])CC2)cc1C(C)C.[177Lu+3] (stereo not shown) [^177Lu-C-2, reference compound]	% ID/g (72 h) Liver	0.99 ± 0.37 % ID/g

* * *

Tested on: ASPC-1 tumor-bearing mice
test-name: Biodistribution of radionuclide labeled complexes in ASPC-1 tumor-bearing mice
Assay type: in vivo, BALB/c nude mice
condition-set: Spleen, 72 h
parameter: % ID/g (72 h) Spleen (% ID/g)

compound	parameter	units-symbol	result-number
COc1cccc(OC)c1-c1cc(C(=O)NC2(C(=O)O)C3CC4CC(C3)CC2C4)nn1-c1ccc(NCCOCCOCCNC(=O)CN2CCN(CC(=O)[O-])CCN(CC(=O)[O-])CCN(CC(=O)[O-])CC2)cc1C(C)C.[177Lu+3] (stereo not drawn) [^177Lu-I-10]	% ID/g (72 h) Spleen	% ID/g	0.02
COc1cccc(OC)c1-c1cc(C(=O)NC2(C(=O)O)C3CC4CC(C3)CC2C4)nn1-c1ccc(OCCCN(C)CCCN(C)C(=O)CN2CCN(CC(=O)[O-])CCN(CC(=O)[O-])CCN(CC(=O)[O-])CC2)cc1C(C)C.[177Lu+3] (stereo not drawn) [^177Lu-I-7]	% ID/g (72 h) Spleen	% ID/g	0.06
COc1cccc(OC)c1-c1cc(C(=O)NC2(C(=O)O)C3CC4CC(C3)CC2C4)nn1-c1ccc(NCCCN(C)CCCNC(=O)CN2CCN(CC(=O)[O-])CCN(CC(=O)[O-])CCN(CC(=O)[O-])CC2)cc1C(C)C.[177Lu+3] (stereo not drawn) [^177Lu-I-2]	% ID/g (72 h) Spleen	% ID/g	0.19
COc1cccc(OC)c1-c1cc(C(=O)NC2(C(=O)O)C3CC4CC(C3)CC2C4)nn1-c1ccc(C(=O)N(C)CCCN(C)CCCN(C)C(=O)CN2CCN(CC(=O)[O-])CCN(CC(=O)[O-])CCN(CC(=O)[O-])CC2)cc1C(C)C.[177Lu+3] (stereo not drawn) [^177Lu-C-2, reference compound]	% ID/g (72 h) Spleen	% ID/g	0.34
COc1cccc(OC)c1-c1cc(C(=O)NC2(C(=O)O)C3CC4CC(C3)CC2C4)nn1-c1ccc(NC(=O)CCCN(C)CCCN(C)C(=O)CN2CCN(CC(=O)[O-])CCN(CC(=O)[O-])CCN(CC(=O)[O-])CC2)cc1C(C)C.[177Lu+3] (stereo not drawn) [^177Lu-I-5]	% ID/g (72 h) Spleen	% ID/g	0.34
COc1cccc(OC)c1-c1cc(C(=O)NC2(C(=O)O)C3CC4CC(C3)CC2C4)nn1-c1ccc(N(C)CCCN(C)CCCN(C)C(=O)CN2CCN(CC(=O)[O-])CCN(CC(=O)[O-])CCN(CC(=O)[O-])CC2)cc1C(C)C.[177Lu+3] (stereo not drawn) [^177Lu-I-1]	% ID/g (72 h) Spleen	% ID/g	0.24
